# Target or system: UBE2T; note: test concentration or dose not given here
# Assay remarks: reporter assay of Huesken 2005
# Assay context: siRNA
Oligonucleotides are written 5' to 3', each unit as a sugar letter and its base; * is a phosphorothioate linkage, no mark a phosphodiester; rarer units and linkages stand in square brackets, end groups in braces. Plain capitals give the bases only. d = 2'-deoxy (DNA); r = 2'-OH (RNA)
Observable: normalised inhibition (eCFP-eYFP dual reporter) (%)

> print(dat)
                                  substance  target.or.system  reading
1  sense rArArGrArGrArUrGrCrUrUrGrArUrArArUrCrUdTdT / antisense rArGrArUrUrArUrCrArArGrCrArUrCrUrCrUrUdCdC             UBE2T     99.4
2  sense rUrCrUrArCrCrArGrArGrGrCrUrGrGrUrGrArCdTdT / antisense rGrUrCrArCrCrArGrCrCrUrCrUrGrGrUrArGrAdTdT             UBE2T     63.5
3  sense rArCrArUrArUrCrCrUrCrArGrArArUrUrUrArAdTdT / antisense rUrUrArArArUrUrCrUrGrArGrGrArUrArUrGrUdCdA             UBE2T      114
4  sense rGrGrCrArUrCrArCrArUrGrUrUrGrGrCrArArGdTdT / antisense rCrUrUrGrCrCrArArCrArUrGrUrGrArUrGrCrCdTdG             UBE2T     87.3
5  sense rArGrCrUrGrCrUrCrArUrGrUrCrArGrArArCrCdTdT / antisense rGrGrUrUrCrUrGrArCrArUrGrArGrCrArGrCrUdGdA             UBE2T     79.4
6  sense rCrArGrGrCrArUrCrArCrArUrGrUrUrGrGrCrAdTdT / antisense rUrGrCrCrArArCrArUrGrUrGrArUrGrCrCrUrGdGdG             UBE2T     90.8
